Target: HiBiT-tagged endogenous SOS1 protein (Homo sapiens, UniProt Q07889)
Construct: HEK293 cells were engineered to express a HiBiT-tagged endogenous SOS1 protein; endogenous in cells; host or cells: HEK293 (engineered, HiBiT knock-in at the endogenous SOS1 locus)
Sequence (Q07889 1-1333): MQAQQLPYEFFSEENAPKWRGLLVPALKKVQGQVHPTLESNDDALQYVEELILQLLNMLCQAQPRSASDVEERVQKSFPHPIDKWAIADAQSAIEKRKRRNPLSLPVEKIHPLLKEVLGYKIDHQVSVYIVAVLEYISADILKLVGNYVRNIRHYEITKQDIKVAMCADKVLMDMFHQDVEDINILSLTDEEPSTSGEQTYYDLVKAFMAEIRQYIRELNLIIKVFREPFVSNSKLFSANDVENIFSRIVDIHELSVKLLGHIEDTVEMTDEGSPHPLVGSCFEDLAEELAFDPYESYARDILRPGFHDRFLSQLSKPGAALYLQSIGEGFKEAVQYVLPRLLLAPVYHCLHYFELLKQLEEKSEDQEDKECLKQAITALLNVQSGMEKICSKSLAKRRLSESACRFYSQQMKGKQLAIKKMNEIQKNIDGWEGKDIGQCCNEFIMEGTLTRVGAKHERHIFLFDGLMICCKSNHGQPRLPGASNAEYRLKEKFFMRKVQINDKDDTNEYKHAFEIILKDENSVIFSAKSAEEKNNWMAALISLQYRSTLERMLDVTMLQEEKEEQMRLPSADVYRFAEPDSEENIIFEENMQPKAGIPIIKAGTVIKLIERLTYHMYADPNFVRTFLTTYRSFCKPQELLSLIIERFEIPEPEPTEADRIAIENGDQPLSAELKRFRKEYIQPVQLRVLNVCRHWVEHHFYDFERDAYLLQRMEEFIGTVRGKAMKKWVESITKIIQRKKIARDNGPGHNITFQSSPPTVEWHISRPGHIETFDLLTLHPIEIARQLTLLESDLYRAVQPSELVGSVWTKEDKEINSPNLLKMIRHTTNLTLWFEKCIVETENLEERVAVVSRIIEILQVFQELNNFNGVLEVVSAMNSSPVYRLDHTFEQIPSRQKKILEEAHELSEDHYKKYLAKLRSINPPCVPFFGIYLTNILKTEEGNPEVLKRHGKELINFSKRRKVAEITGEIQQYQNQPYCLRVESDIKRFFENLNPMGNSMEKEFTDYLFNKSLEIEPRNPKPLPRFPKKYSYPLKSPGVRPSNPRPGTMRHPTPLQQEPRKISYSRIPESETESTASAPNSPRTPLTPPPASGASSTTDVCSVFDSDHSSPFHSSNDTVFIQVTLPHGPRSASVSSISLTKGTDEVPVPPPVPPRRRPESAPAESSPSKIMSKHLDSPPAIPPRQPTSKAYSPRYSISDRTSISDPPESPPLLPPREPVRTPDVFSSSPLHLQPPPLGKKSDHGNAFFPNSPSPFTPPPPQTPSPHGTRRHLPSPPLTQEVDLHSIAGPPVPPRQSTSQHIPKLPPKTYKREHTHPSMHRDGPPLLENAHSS
Experiment: SOS1-HiBiT Degradation Assay
Format: cell-based
Conditions: HEK293 cells expressing HiBiT-tagged endogenous SOS1, 6 h treatment
Listed here are compounds together with their documented DC50.

Recorded DC50, per entry:
- Cc1c([C@@H](C)Nc2nnc(C)c3ccc(N4CCN(CCCCCCCCCN5CCN(C(=O)CNc6ccc(C7CCC(=O)NC7=O)cc6)CC5)CC4)cc23)cccc1C(F)(F)F (stereo partly drawn) [Compound A303]: ≤ 100 nM
- Cc1c([C@@H](C)Nc2nnc(C)c3ccc(N4CCN(CCCCCN5CCN(C(=O)CNc6ccc(C7CCC(=O)NC7=O)cc6)CC5)CC4)cc23)cccc1C(F)(F)F (stereo partly drawn) [Compound A301]: > 2000 nM
- COc1cc2nc(C)nc(N[C@H](C)c3cc(N)cc(C(F)(F)F)c3)c2cc1OC [Compound C1, reference compound]: > 10000 nM

Q) # lookup: DC50 of Cc1c([C@@H](C)Nc2nnc(C)c3ccc(N4CCN(CCCCCCCCCN5CCC(c6cc7c(cc6F)C(=O)N(C6CCC(=O)NC6=O)C7)CC5)CC4)cc23)cccc1C(F)(F)F (stereo partly drawn) [Compound A103]
A) ≤ 100 nM

Q) # lookup: DC50 of Cc1c([C@@H](C)Nc2nnc(C)c3ccc(N4CCN(CCCCCCCCCN5CCN(C(=O)CNc6cccc7c(C8CCC(=O)NC8=O)nn(C)c67)CC5)CC4)cc23)cccc1C(F)(F)F (stereo partly drawn) [Compound A203]
A) ≤ 100 nM

Q) # lookup: DC50 of Cc1c([C@@H](C)Nc2nnc(C)c3ccc(N4CCN(CCCCCN5CCC(c6cc7c(cc6F)C(=O)N(C6CCC(=O)NC6=O)C7)CC5)CC4)cc23)cccc1C(F)(F)F (stereo partly drawn) [Compound A101]
A) ≤ 100 nM
